The reported numbers originate from patent US20250215029A1.

Reported pIC50 values for the following compounds.
# STUDY TARGET: Recombinant STAT3 protein (STAT3 (G127-I722)) (Homo sapiens, UniProt P40763)
# Construct: Recombinant STAT3 protein (STAT3 (G127-I722))
# Sequence (P40763 127-722): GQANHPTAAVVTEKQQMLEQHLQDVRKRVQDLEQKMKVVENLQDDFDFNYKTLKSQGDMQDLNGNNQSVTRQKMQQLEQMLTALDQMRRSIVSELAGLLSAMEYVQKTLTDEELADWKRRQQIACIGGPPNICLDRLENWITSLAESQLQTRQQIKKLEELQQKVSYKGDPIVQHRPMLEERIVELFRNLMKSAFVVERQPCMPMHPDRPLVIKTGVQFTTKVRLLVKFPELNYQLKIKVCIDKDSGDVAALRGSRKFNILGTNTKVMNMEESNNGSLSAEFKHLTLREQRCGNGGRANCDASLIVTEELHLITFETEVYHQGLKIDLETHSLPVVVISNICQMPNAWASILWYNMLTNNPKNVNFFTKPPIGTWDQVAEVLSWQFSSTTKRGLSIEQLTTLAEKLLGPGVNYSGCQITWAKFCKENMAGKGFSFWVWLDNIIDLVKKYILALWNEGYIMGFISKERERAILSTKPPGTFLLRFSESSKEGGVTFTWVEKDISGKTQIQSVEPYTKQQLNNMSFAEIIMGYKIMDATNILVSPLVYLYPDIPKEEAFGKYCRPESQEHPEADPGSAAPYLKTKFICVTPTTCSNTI
# PROTOCOL TEXT: STAT3 Fluorescence Polarization (FP) Assay
# Format: binding
# DETAILS: STAT3 25 nM, probe 5-FAM-GpYLPQTV-NH2 2 nM, 45-minute incubation; read-out: STAT3 (FP assay IC50)
pIC50: −log10 of the molar value.

Solved cases below.
>  <COMPOUND>
O=C(N[C@H]1CCC[C@H]2CC[C@@H](C(=O)N3CC(c4ccccn4)C3)N2C1=O)c1cc2cc(C(F)(F)P(=O)(O)O)ccc2s1 [Compound 108]

>  <pIC50>
> 7.00

$$$$
>  <COMPOUND>
CN(C(=O)[C@@H]1CC[C@@H]2CCCC[C@H](NC(=O)c3cc4cc(C(F)(F)P(=O)(O)O)ccc4[nH]3)C(=O)N21)c1ccccc1 [Compound 1]

>  <pIC50>
< 5.00

$$$$
>  <COMPOUND>
N#C[C@H]1CN(C(=O)[C@@H]2CC[C@@H]3CCCC[C@H](NC(=O)c4cc5cc(C(F)(F)P(=O)(O)O)ccc5s4)C(=O)N32)C[C@@H]1CC1CCOCC1 (racemic) [Compound 88]

>  <pIC50>
5.00 to 6.00

$$$$
>  <COMPOUND>
CC1CCC[C@H](NC(=O)c2cc3cc(C(F)(F)P(=O)(O)O)ccc3s2)C(=O)N2[C@@H]1CC[C@H]2C(=O)N1CC(c2cccnc2)C1 (some centres unmarked) [Compound 103]

>  <pIC50>
> 7.00

$$$$

Query :: I am curious: what pIC50 value has been reported for C[C@]1(O)CC[C@H](NC(=O)c2cc3cc(C(F)(F)P(=O)(O)O)ccc3s2)C(=O)N2[C@H](CC[C@H]2C(=O)N2CC(C(=O)N3CCOCC3)C2)C1 [Compound 13] ?
Result :: > 7.00
